Kindly supply the reported LHRH antagonist potency (pA2) values for the records listed here.
- target_desc: LH release from rat pituitary cells (Rattus norvegicus, UniProt P30969)
- Sequence (P30969 whole entry): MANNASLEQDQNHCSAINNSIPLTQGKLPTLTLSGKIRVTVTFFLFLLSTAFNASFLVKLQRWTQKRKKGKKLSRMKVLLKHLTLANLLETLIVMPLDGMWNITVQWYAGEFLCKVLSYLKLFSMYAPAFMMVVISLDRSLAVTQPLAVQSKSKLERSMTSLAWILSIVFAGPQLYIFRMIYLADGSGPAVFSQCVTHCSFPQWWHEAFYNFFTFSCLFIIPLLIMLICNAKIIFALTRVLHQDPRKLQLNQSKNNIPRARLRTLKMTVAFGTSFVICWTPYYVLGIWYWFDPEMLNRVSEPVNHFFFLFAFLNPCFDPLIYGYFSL
- procedure_text: in vitro inhibition of LH release from rat pituitary cells (pA2)
- Assay type: cell-based
- recorded_conditions: pA2 = negative logarithm of antagonist concentration required to shift the response curve of the agonist leuprolide to two-fold higher concentration
Non-standard residues stand in square brackets, D forms with d. Residues, ends and D or L forms follow the SMILES beside them. *: point of attachment. NHCH2CH2(piperidin-1-yl) = C1CCN(CCN*)CC1; dPhe(4-Cl) = N[C@H](Cc1ccc(Cl)cc1)C(=O)O; d2Nal = N[C@H](Cc1ccc2ccccc2c1)C(=O)O; NMeY = CN[C@@H](Cc1ccc(O)cc1)C(=O)O; d3Pal = N[C@H](Cc1cccnc1)C(=O)O; Nicotinoyl = O=C(c1cccnc1)*; NHBu = CCCCN*
Answers are plain numbers.

{"compound": "CCCCNC(=O)[C@H](CC(C)C)NC(=O)[C@@H](CCCCNC(=O)c1cccnc1)NC(=O)[C@H](Cc1ccc(O)cc1)N(C)C(=O)[C@H](CO)NC(=O)[C@@H](Cc1cccnc1)NC(=O)[C@@H](Cc1ccc(Cl)cc1)NC(=O)[C@@H](Cc1ccc2ccccc2c1)NC(C)=O [Example 1] (Ac-[d2Nal][dPhe(4-Cl)][d3Pal]S[NMeY][dK](Nicotinoyl)L-NHBu)", "value_measured": 7.90}

Consider the record given below.
# LHRH antagonist potency (pA2) of CC(=O)N[C@H](Cc1ccc2ccccc2c1)C(=O)N[C@H](Cc1ccc(Cl)cc1)C(=O)N[C@H](Cc1cccnc1)C(=O)N[C@@H](CO)C(=O)N(C)[C@@H](Cc1ccc(O)cc1)C(=O)N[C@H](CCCCNC(=O)c1cccnc1)C(=O)N[C@@H](CC(C)C)C(=O)NCCN1CCCCC1 [Example 26] (Ac-[d2Nal][dPhe(4-Cl)][d3Pal]S[NMeY][dK](Nicotinoyl)L-{NHCH2CH2(piperidin-1-yl)}) = 9.30
